stated-conditions: in isobutanol, 293.15 K
measurement-type: solubility (mole fraction)
Lab note: record just the number, no unit beside it.

Tell me measured solubility (mole fraction) for N[C@@H](CC(=O)N1CCn2c(nnc2C(F)(F)F)C1)Cc1cc(F)c(F)cc1F please. 0.0158

###

stated-conditions: in isobutanol, 283.15 K
measurement-type: solubility (mole fraction)

Tell me measured solubility (mole fraction) for N[C@@H](CC(=O)N1CCn2c(nnc2C(F)(F)F)C1)Cc1cc(F)c(F)cc1F please. 0.0123

###

stated-conditions: in isopropanol, 293.15 K
measurement-type: solubility (mole fraction)

Tell me measured solubility (mole fraction) for N[C@@H](CC(=O)N1CCn2c(nnc2C(F)(F)F)C1)Cc1cc(F)c(F)cc1F please. 0.00857

###

stated-conditions: in ethyl acetate, 318.15 K
measurement-type: solubility (mole fraction)
Lab note: record just the number, no unit beside it.

Tell me measured solubility (mole fraction) for N[C@@H](CC(=O)N1CCn2c(nnc2C(F)(F)F)C1)Cc1cc(F)c(F)cc1F please. 0.0435

###

stated-conditions: in water, 293.15 K
measurement-type: solubility (mole fraction)
Lab note: record just the number, no unit beside it.

Tell me measured solubility (mole fraction) for N[C@@H](CC(=O)N1CCn2c(nnc2C(F)(F)F)C1)Cc1cc(F)c(F)cc1F please. 0.000376

###

stated-conditions: in ethanol, 313.15 K
measurement-type: solubility (mole fraction)
Lab note: record just the number, no unit beside it.

Tell me measured solubility (mole fraction) for N[C@@H](CC(=O)N1CCn2c(nnc2C(F)(F)F)C1)Cc1cc(F)c(F)cc1F please. 0.0606

###

stated-conditions: in sec-butanol, 313.15 K
measurement-type: solubility (mole fraction)

Tell me measured solubility (mole fraction) for N[C@@H](CC(=O)N1CCn2c(nnc2C(F)(F)F)C1)Cc1cc(F)c(F)cc1F please. 0.0142

###

stated-conditions: in THF, 303.15 K
measurement-type: solubility (mole fraction)
Lab note: record just the number, no unit beside it.

Tell me measured solubility (mole fraction) for N[C@@H](CC(=O)N1CCn2c(nnc2C(F)(F)F)C1)Cc1cc(F)c(F)cc1F please. 0.0554

###

stated-conditions: in sec-butanol, 288.15 K
measurement-type: solubility (mole fraction)
Lab note: record just the number, no unit beside it.

Tell me measured solubility (mole fraction) for N[C@@H](CC(=O)N1CCn2c(nnc2C(F)(F)F)C1)Cc1cc(F)c(F)cc1F please. 0.0047

###

stated-conditions: in n-propanol, 278.15 K
measurement-type: solubility (mole fraction)

Tell me measured solubility (mole fraction) for N[C@@H](CC(=O)N1CCn2c(nnc2C(F)(F)F)C1)Cc1cc(F)c(F)cc1F please. 0.00795

###

stated-conditions: in ethanol, 308.15 K
measurement-type: solubility (mole fraction)
Lab note: record just the number, no unit beside it.

Tell me measured solubility (mole fraction) for N[C@@H](CC(=O)N1CCn2c(nnc2C(F)(F)F)C1)Cc1cc(F)c(F)cc1F please. 0.0451

###

stated-conditions: in acetonitrile, 323.15 K
measurement-type: solubility (mole fraction)

Tell me measured solubility (mole fraction) for N[C@@H](CC(=O)N1CCn2c(nnc2C(F)(F)F)C1)Cc1cc(F)c(F)cc1F please. 0.156

###

stated-conditions: in n-butanol, 323.15 K
measurement-type: solubility (mole fraction)
Lab note: record just the number, no unit beside it.

Tell me measured solubility (mole fraction) for N[C@@H](CC(=O)N1CCn2c(nnc2C(F)(F)F)C1)Cc1cc(F)c(F)cc1F please. 0.0452
